Target: UniProtKB P10520
Sequence (P10520 whole entry): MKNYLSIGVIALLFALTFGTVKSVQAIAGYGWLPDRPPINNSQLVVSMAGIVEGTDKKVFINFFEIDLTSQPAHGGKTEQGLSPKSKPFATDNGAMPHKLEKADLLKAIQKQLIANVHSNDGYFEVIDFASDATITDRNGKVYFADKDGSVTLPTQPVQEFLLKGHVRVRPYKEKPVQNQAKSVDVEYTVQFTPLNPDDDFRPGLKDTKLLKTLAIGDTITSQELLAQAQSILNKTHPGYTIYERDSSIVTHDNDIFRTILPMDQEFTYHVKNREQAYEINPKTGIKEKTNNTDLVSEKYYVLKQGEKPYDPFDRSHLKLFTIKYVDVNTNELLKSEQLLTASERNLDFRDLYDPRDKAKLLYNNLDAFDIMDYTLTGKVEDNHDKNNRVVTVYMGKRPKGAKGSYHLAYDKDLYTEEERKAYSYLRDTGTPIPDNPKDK
Experiment: S. pyogenes streptokinase expression inhibitors, potency, dose response, plasminogen activation absorbance, OD405 (AID 1914);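 note: secreted streptokinase activity via plasminogen activation per viability signal from cell pellet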
Format: functional, Streptococcus pyogenes M1 GAS
The source made the active and inactive calls. Cut-off read from the data, not from the text of the source: actives have a measured EC50 and inactives only a lower limit.
PROPERTY: EC50

Please review the following examples before continuing.
### Prompt Entry under review: O=C(/C=C/c1ccccc1)c1cc(Br)ccc(=O)c1O . Reported EC50?
### Response > 150 µM (not active)

### Prompt Entry under review: Oc1c(N=NC(S)=Nc2ccccc2F)c2ccccc2n1Cc1cccc(Cl)c1 . Reported EC50?
### Response > 150 µM (not active)

### Prompt Entry under review: C/C(=N\NC(=O)c1ccc(C)cc1)c1c(C)nn(-c2ccccc2)c1O . Reported EC50?
### Response > 150 µM (not active)

### Prompt Entry under review: C(=N\Nc1ncnc2sc3c(c12)CCC3)/c1cccs1 . Reported EC50?
### Response > 150 µM (not active)

### Prompt Entry under review: Cc1oc(-c2ccccc2Cl)nc1Cn1cccc1C1=NC(c2ccccc2)CO1 (stereo not drawn) . Reported EC50?
### Response > 50 µM (not active)

### Prompt Entry under review: Cc1ccc(NC(=O)c2nc(S(=O)(=O)Cc3ccccc3C)ncc2Cl)cc1C . Reported EC50?
### Response 1.32 µM (active)

***
### Prompt Entry under review: C=CCSc1nc2ccccc2c(=O)n1Cc1ccccc1 . Reported EC50?
### Response > 150 µM (not active)

### Prompt Entry under review: O=C(COc1c(Cl)cccc1Cl)Nc1ccccc1N1CCCC1 . Reported EC50?
### Response 16.1 µM (active)

### Prompt Entry under review: Fc1ccccc1NC1=NN=C(c2ccccc2)CS1 . Reported EC50?
### Response > 150 µM (not active)

### Prompt Entry under review: Cc1cc(NC(=O)CN2C(=O)c3ccccc3C2=O)no1 . Reported EC50?
### Response > 150 µM (not active)

### Prompt Entry under review: Cc1cc(C(F)(F)F)c(C#N)c(SCC(=O)Nc2nc3cc(Br)ccc3s2)n1 . Reported EC50?
### Response 17.5 µM (active)

### Prompt Entry under review: Cc1ccc(S(=O)(=O)Nc2cc(C)c(O)c(S(=O)(=O)c3ccc(C)cc3)c2)cc1 . Reported EC50?
### Response > 150 µM (not active)

### Prompt Entry under review: Cc1cc(/C=C2\SC(=S)N=C2O)c(C)n1-c1cccc(O)c1 . Reported EC50?
### Response > 150 µM (not active)

### Prompt Entry under review: O=C(Cc1ccccc1)NN1C(=O)/C(=C/c2c[nH]c3ccccc23)SC1=S . Reported EC50?
### Response > 150 µM (not active)

### Prompt Entry under review: O=C(NC(NC(=S)Nc1c(Cl)cccc1Cl)C(Cl)(Cl)Cl)OCc1ccccc1 (stereo not drawn) . Reported EC50?
### Response 3.01 µM (active)

### Prompt Entry under review: CC(Nc1nc(-c2ccccc2O)nc2ccccc12)c1ccccc1 (stereo not drawn) . Reported EC50?
### Response 8.55 µM (active)

### Prompt Entry under review: CC(C)Cn1c(O)c(N=NC(=O)c2cccc(S(=O)(=O)N3CCCCC3)c2)c2ccccc21 . Reported EC50?
### Response > 150 µM (not active)

### Prompt Entry under review: CCN1CCN(Cc2ccc(NC(=O)c3ccc(C)c(NC(=O)C(=O)c4c[nH]c5ccccc45)c3)cc2C(F)(F)F)CC1 . Reported EC50?
### Response > 150 µM (not active)

### Prompt Entry under review: CC(C)Sc1cc(N2CCCC2)nc(-c2ccc(F)cc2)n1 . Reported EC50?
### Response 10.9 µM (active)

### Prompt Entry under review: NS(=O)(=O)c1ccc(N/N=C2/CCCCC2C2CCCCC2)c([N+](=O)[O-])c1 (stereo not drawn) . Reported EC50?
### Response 7.92 µM (inconclusive)

### Prompt Entry under review: CC1CC(C)CN(c2ncc3c(n2)CC(c2ccccc2Cl)CC3=O)C1 (stereo not drawn) . Reported EC50?
### Response 10.2 µM (active)

### Prompt Entry under review: C=CCn1c(NCc2cc(Cl)ccc2O)nc2ccccc21 . Reported EC50?
### Response > 150 µM (not active)

### Prompt Entry under review: N#Cc1c(-c2ccccc2)nc(SCc2ccc(Cl)cc2)[nH]c1=O . Reported EC50?
### Response 5.41 µM (active)

### Prompt Entry under review: Oc1c2c(nc3c(-c4ccc(Cl)cc4)cnn13)CCCC2 . Reported EC50?
### Response > 150 µM (not active)

### Prompt Entry under review: Cc1cccc(/C=c2\s/c(=C\C(=O)C(C)(C)C)[nH]c2=O)c1 . Reported EC50?
### Response > 150 µM (not active)

### Prompt Entry under review: COc1ccc(-c2noc(-c3ccccc3-c3ccccc3)n2)cc1 . Reported EC50?
### Response 17.8 µM (active)

### Prompt Entry under review: COc1cc(/C=C2\SC(NS(=O)(=O)c3ccccc3)=NC2=O)c([N+](=O)[O-])cc1OC . Reported EC50?
### Response > 150 µM (not active)

### Prompt Entry under review: c1ccc(N(c2ccccc2)c2nc(N3CCCC3)nc(-n3ccnc3)n2)cc1 . Reported EC50?
### Response > 150 µM (not active)

Source of measurements: ChEMBL document CHEMBL1201862
